# Test system: complementary DNA strand
# ASSAY_NOTES: UV-melting / van't Hoff analysis of PNA-DNA hybrid duplexes
# Type: binding
# CONDITIONS_USED: PNA-DNA duplex; 298 K; averages of three trials
[RMPγPNA-N] = PNA unit with R-MP-gamma backbone modification (N: the base)
Below: a set of entries, each annotated with reported −ΔH°.

{"SUBSTANCE": "H-GCATGTTTGA-NH2 [PNA1] (all peptide nucleic acid (PNA); C-terminal amide)", "−ΔH°": "65.2 ± 1.2 kcal/mol"}
{"SUBSTANCE": "H-GCATGTTTGA-NH2 [PNA3] (PNA; 3 R-MP-gamma units; C-terminal amide; modified_base (4)..(4) R-MP-gamma-backbone modified nucleotide; modified_base (6)..(6) R-MP-gamma-backbone modified nucleotide; modified_base (8)..(8) R-MP-gamma-backbone modified nucleotide)", "−ΔH°": "75.5 ± 2.63 kcal/mol"}

Ask | Record request: −ΔH° value, item H-GCATGTTTGA-NH2 [PNA2] (PNA; 1 R-MP-gamma unit; C-terminal amide; modified_base (6)..(6) R-MP-gamma-backbone modified nucleotide)
Reply | 76.2 ± 4.3 kcal/mol

Ask | Further, for H-GCATGTTTGA-NH2 [PNA5] (all [RMPγPNA-N], methylation of C not given here; C-terminal amide) ?
Reply | 88.9 ± 2.63 kcal/mol

Ask | Same read-out for H-GCATGTTTGA-NH2 [PNA4] (PNA; 5 R-MP-gamma units; C-terminal amide; modified_base (2)..(2) R-MP-gamma-backbone modified nucleotide; modified_base (4)..(4) R-MP-gamma-backbone modified nucleotide; modified_base (6)..(6) R-MP-gamma-backbone modified nucleotide; modified_base (8)..(8) R-MP-gamma-backbone modified nucleotide; modified_base (10)..(10) R-MP-gamma-backbone modified nucleotide) ?
Reply | 78.6 ± 3.35 kcal/mol
